- Subject Of Test: T1, soluble human FcRn (human, UniProt P55899 24-297; P61769 21-119, biotinylated (Sulfo-NHS-LC-Biotin) in the ELISA; amine-coupled to CM5 chip in SPR)
- T1 construct: also called shFcRn; biotinylated shFcRn
- Protocol Description: ELISA, competitor human IgG
Bridge positions count the residues as written; N and C are the ends. Ends that are not written are not given here.
Property Name: pIC50
pIC50 (log units): -log10 of the concentration in mol/L.

Fill in pIC50 for record QRFKTGHFGGLYPDNGP-NH2 (lactam 4-14; N-terminus assumed; SMILES CC(C)C[C@@H]1NC(=O)CNC(=O)CNC(=O)[C@H](Cc2ccccc2)NC(=O)[C@H](Cc2c[nH]cn2)NC(=O)CNC(=O)[C@H]([C@@H](C)O)NC(=O)[C@@H](NC(=O)[C@H](Cc2ccccc2)NC(=O)[C@H](CCCNC(=N)N)NC(=O)[C@@H](N)CCC(N)=O)CCCCNC(=O)C[C@@H](C(=O)N[C@@H](CC(N)=O)C(=O)NCC(=O)N2CCC[C@H]2C(N)=O)NC(=O)[C@@H]2CCCN2C(=O)[C@H](Cc2ccc(O)cc2)NC1=O) [Peptide No. 80]
4.22

Fill in pIC50 for record QRFDTGHFGGLYPKN-NH2 (lactam 4-14; N-terminus assumed; SMILES CC(C)C[C@@H]1NC(=O)CNC(=O)CNC(=O)[C@H](Cc2ccccc2)NC(=O)[C@H](Cc2c[nH]cn2)NC(=O)CNC(=O)[C@H]([C@@H](C)O)NC(=O)[C@@H](NC(=O)[C@H](Cc2ccccc2)NC(=O)[C@H](CCCNC(=N)N)NC(=O)[C@@H](N)CCC(N)=O)CC(=O)NCCCC[C@@H](C(=O)N[C@@H](CC(N)=O)C(N)=O)NC(=O)[C@@H]2CCCN2C(=O)[C@H](Cc2ccc(O)cc2)NC1=O) [Peptide No. 127]
5.12
